Can you tell me koff for the items I'm about to list?
# Target desc: T1, human serum albumin (human, UniProt P02768 25-609)
# T1 construct: mature; Bought purified serum albumin; also called HSA; Human albumin
# Assay procedure: SPR, Fab captured; albumin taken as HSA;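 also: antibody held on a capture surface, albumin injected for 3 min association then dissociation followed, signals corrected using a blank reference flow cell and buffer-only injections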
One number for each entry, in s⁻¹.

Below, 2 binders whose answers are already recorded.
CA645 gL4gH38 Fab (Fab, V domains shown, Fab: human gamma1 CH1, human kappa (Km3); Kabat numbering) VH: EVQLLESGGGLVQPGGSLRLSCAVSGIDLSNYAINWVRQAPGKGLEWIGIIWASGTTYYATWAKGRFTISRDNSKNTVYLQMNSLRAEDTAVYYCARTVPGYSTAPYFDLWGQGTLVTVSS VL: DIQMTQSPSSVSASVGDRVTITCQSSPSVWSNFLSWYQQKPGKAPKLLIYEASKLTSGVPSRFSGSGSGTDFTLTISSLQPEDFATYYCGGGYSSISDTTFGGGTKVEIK :: 0.000581
CA645 gL4gH39 Fab (Fab, V domains shown, Fab: human gamma1 CH1, human kappa (Km3); Kabat numbering) VH: EVQLLESGGGLVQPGGSLRLSCAVSGIDLSNYAINWVRQAPGKGLEWIGIIWASGTTFYATWAKGRFTISRDNSKNTVYLQMNSLRAEDTAVYYCARTVPIYSTAPYFDLWGQGTLVTVSS VL: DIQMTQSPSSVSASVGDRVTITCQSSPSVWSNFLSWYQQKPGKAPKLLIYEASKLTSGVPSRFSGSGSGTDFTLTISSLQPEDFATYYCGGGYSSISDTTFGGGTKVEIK :: 0.00075

Input: Which koff value belongs to CA645 gL35gH5 Fab (Fab, V domains shown, Fab: human gamma1 CH1, human kappa (Km3); Kabat numbering) VH: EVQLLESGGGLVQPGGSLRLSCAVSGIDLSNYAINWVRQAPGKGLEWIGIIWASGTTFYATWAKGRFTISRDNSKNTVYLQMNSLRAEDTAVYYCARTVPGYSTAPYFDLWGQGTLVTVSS VL: DIQMTQSPSSVSASVGDRVTITCQSSPSVWSNFLSWYQQKPGKAPKLLIYEASKLTSGVPSRFSGSGSGTDFTLTISSLQPEDFATYYCGGGYVSISDTTFGGGTKVEIK ?
Output: 0.00029
